system.name: 3H-Pirenzepine bonding to rat brain homogenate (Rattus norvegicus)
Construct: to obtain a rat brain homogenate for testing; from tissue; host or cells: brain without cerebellum, SD male rat (homogenate, 1000×g supernatant)
Sequence (P08482 whole entry): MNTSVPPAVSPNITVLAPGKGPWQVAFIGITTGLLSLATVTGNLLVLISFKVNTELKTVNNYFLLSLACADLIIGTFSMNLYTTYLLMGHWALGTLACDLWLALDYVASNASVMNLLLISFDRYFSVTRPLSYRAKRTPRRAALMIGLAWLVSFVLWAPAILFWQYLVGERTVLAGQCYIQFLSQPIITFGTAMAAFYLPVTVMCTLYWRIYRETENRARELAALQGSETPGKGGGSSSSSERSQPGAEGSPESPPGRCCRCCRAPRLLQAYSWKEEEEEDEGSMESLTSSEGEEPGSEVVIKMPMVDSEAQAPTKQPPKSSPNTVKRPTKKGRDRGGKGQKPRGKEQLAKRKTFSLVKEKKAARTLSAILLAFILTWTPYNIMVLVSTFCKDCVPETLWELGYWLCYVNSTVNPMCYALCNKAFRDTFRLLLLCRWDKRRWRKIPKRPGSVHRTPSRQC
method.notes: 3H-Pirenzepine bonding inhibition test, rat brain homogenate (Test Example 2)
Type: binding, SD male rat
conditions: 2.0 nM 3H-pirenzepine, pH 7.4, room temperature, 60 min; read-out: IC50 (50% inhibitory concentration on 3H-pirenzepine bonding)

smiles.representation | IC50 [µM]
O=[N+]([O-])c1c(NCC23CCCN2CCC3)cnc2ccccc12 | 1.2
CC(C)N(CCNc1ccc([N+](=O)[O-])c2ccccc12)C(C)C | 0.9
O=[N+]([O-])c1c2ccccc2c(NCC23CCCN2CCC3)c2ccccc12 | 1.4
CN(CC12CCCN1CCC2)c1c([N+](=O)[O-])ccc2ccccc12 | 0.44
